Attribution: patent US7575882B2

Target of assay: rat TRPV2 (Rattus norvegicus, UniProt Q9WUD2, A713V/L151P/T158I)
Construct: A cDNA fragment encoding the full-length rat TRPV2 was subcloned into pCI-neo; expressed in transfected cells
Sequence (Q9WUD2 1-761 L151P/T158I/A713V): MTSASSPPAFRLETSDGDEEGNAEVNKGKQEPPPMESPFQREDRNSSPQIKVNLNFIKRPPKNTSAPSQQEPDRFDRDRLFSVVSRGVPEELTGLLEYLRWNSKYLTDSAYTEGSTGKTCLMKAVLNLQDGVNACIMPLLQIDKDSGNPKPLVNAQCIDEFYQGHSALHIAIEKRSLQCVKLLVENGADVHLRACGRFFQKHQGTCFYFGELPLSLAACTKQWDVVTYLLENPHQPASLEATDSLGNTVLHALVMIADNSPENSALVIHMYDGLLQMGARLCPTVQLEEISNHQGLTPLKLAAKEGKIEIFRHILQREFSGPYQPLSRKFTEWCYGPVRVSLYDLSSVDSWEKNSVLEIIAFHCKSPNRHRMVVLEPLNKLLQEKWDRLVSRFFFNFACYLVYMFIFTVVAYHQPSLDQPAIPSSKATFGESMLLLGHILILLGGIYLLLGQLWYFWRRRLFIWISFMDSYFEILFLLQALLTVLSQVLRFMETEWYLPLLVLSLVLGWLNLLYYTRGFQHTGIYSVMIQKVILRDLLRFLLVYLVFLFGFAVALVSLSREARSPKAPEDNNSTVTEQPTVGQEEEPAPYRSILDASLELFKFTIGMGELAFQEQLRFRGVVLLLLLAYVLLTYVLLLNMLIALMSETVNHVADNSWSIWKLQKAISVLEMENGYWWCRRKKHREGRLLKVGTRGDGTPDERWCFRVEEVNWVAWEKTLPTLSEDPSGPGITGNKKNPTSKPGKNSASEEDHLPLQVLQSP
Method notes: FLIPR calcium mobilization assay in rat TRPV2-expressing HEK293 cells
Format: cell-based
Condition: HEK293; read-out: % Response (activation of rat TRPV2)
Endpoint: Emax at 100 µM (%)
One number for each entry, in %.

Below, each entry is followed by its recorded Emax at 100 µM result.
Query block: Reported Emax at 100 µM, compound CCCCCCC(C)(C)c1ccc(C2CC(O)CCC2CCCO)c(O)c1 (stereo not shown) : ____
Result block: 43

Query block: Reported Emax at 100 µM, compound Cc1cc2cccc3c2n1C(CN1CCOCC1)[C@H](C(=O)c1cccc2ccccc12)O3 (stereo partly shown) : ____
Result block: -2

Query block: Reported Emax at 100 µM, compound CCCCC/C=C\C/C=C\C/C=C\C/C=C\CCCC(=O)Nc1ccc(O)cc1 : ____
Result block: 6

Query block: Reported Emax at 100 µM, compound CCCCCCCCCCCCCCCC(=O)NCCO [PEA, palmitoylethanolamide] : ____
Result block: 5

Field: Emax at 100 µM. Fill in for each record below.
1. CCCC(C)(C)c1ccc2c(c1)OC(C)(C)[C@@H]1CC=C(C)C[C@@H]21
2. Cc1c(C(=O)c2cccc3ccccc23)c2cccc3c2n1C(CN1CCOCC1)CO3 (stereo not shown)

Result block:
1: 5; 2: 7
